The reported numbers originate from PubChem BioAssay AID1963866.

system: PDC KRAS tumor spheroids with HUVEC/MSC, viability; experiment: Anticancer human tumor 349418-098-R-PDC patient-derived lung adenocarcinoma cell line growth inhibition [KRAS2]; settings: second compound 0.1 µM; first compound 10 µM; stronger effect = lower value
measurementName: viability, T/C

Worked set:
1. COC(=O)c1ccc2c(C(=Nc3ccc(N(C)C(=O)CN4CCN(C)CC4)cc3)c3ccccc3)c(O)[nH]c2c1 + CC1OCC2(CCN(c3cnc(Sc4ccnc(N)c4Cl)c(N)n3)CC2)C1N
15.3%
2. CC(C)NCC(C(=O)N1CCN(c2ncnc3c2C(C)CC3O)CC1)c1ccc(Cl)cc1 (stereo not given) + C=CC(=O)N1CCN(c2nc(OCC3CCCN3C)nc3c2CCN(c2cccc4cccc(C)c24)C3)CC1CC#N
7.07%
3. CC1OCC2(CCN(c3cnc(Sc4ccnc(N)c4Cl)c(N)n3)CC2)C1N (stereo not given) + CNCc1ccccc1-c1csc(C(C)Nc2nc(C)nc3cc(OC)c(OC)cc23)c1
88.3%
4. COc1cc(Nc2ncc3c(n2)-c2ccc(Cl)cc2C(c2c(F)cccc2OC)=NC3)ccc1C(=O)O + C=CC(=O)N1CCN(c2nc(=O)n(-c3c(C)ccnc3C(C)C)c3nc(-c4c(O)cccc4F)c(F)cc23)C(C)C1
39.2%

Please find the next molecule below.
Qu. Can you share its viability, T/C? I mean this molecule: COc1cc(Nc2ncc3c(n2)-c2ccc(Cl)cc2C(c2c(F)cccc2OC)=NC3)ccc1C(=O)O + CNCc1ccccc1-c1csc(C(C)Nc2nc(C)nc3cc(OC)c(OC)cc23)c1
Ans. 24.8%

---

tested on: PDC KRAS tumor spheroids with HUVEC/MSC, viability; assay: Anticancer human tumor 349418-098-R-PDC cell line growth inhibition [KRAS2]; conditions: curve of first compound; second compound 0.316 µM;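 also: spheroids exposed to compounds for seven days before readout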
Exercise: for every item that follows, state its recorded log10 IC50.
Note the log scale: values are log10 of IC50 expressed in nM.

Here's what some known entries look like.
1) COC(=O)c1ccc2c(C(=Nc3ccc(N(C)C(=O)CN4CCN(C)CC4)cc3)c3ccccc3)c(O)[nH]c2c1 + CNCc1ccccc1-c1csc(C(C)Nc2nc(C)nc3cc(OC)c(OC)cc23)c1
2.43
2) Cn1nccc1Nc1nccc(-c2cc3c(s2)C(C)(C)N(CCN2CCOCC2)C3=O)n1 + C=CC(=O)N1CCN(c2nc(OCC3CCCN3C)nc3c2CCN(c2cccc4cccc(C)c24)C3)CC1CC#N
1.69
3) COc1cc2nccc(Oc3ccc(NC(=O)C4(C(=O)Nc5ccc(F)cc5)CC4)cc3)c2cc1OC + C=CC(=O)N1CCN(c2nc(=O)n(-c3c(C)ccnc3C(C)C)c3nc(-c4c(O)cccc4F)c(F)cc23)C(C)C1
3.22
4) COc1cc2nccc(Oc3ccc(NC(=O)C4(C(=O)Nc5ccc(F)cc5)CC4)cc3)c2cc1OC + CC1OCC2(CCN(c3cnc(Sc4ccnc(N)c4Cl)c(N)n3)CC2)C1N
3.22
5) CC1(C)CCC(CN2CCN(c3ccc(C(=O)NS(=O)(=O)c4ccc(NCC5CCOCC5)c([N+](=O)[O-])c4)c(Oc4cnc5[nH]ccc5c4)c3)CC2)=C(c2ccc(Cl)cc2)C1 + C=CC(=O)N1CCN(c2nc(OCC3CCCN3C)nc3c2CCN(c2cccc4cccc(C)c24)C3)CC1CC#N
3.18
6) COC(=O)c1ccc2c(C(=Nc3ccc(N(C)C(=O)CN4CCN(C)CC4)cc3)c3ccccc3)c(O)[nH]c2c1 + C=CC(=O)N1CCN(c2nc(OCC3CCCN3C)nc3c2CCN(c2cccc4cccc(C)c24)C3)CC1CC#N
2.19
7) COc1cc2nccc(Oc3ccc(NC(=O)C4(C(=O)Nc5ccc(F)cc5)CC4)cc3)c2cc1OC + C=CC(=O)N1CCN(c2nc(OCC3CCCN3C)nc3c2CCN(c2cccc4cccc(C)c24)C3)CC1CC#N
3.18

Consider the additional compound presented here.
Qu. State the recorded log10 IC50 for this entry: CCNC(=O)CC1N=C(c2ccc(Cl)cc2)c2cc(OC)ccc2-n2c(C)nnc21 (stereo not given) + COc1cc2nc(C)nc(NC(C)c3cc(N)cc(C(F)(F)F)c3)c2cc1OC1CCOC1
Ans. 2.03
